melting point listing for selected compounds.

Observe how each entry below is paired with its result.
N#Cc1ccc(-c2ccc(O)c(-c3nc4cc(C#N)ccc4[nH]3)c2)cc1	> 340 °C
CC1(C)Oc2ccc(C#N)cc2C(C(=O)Nc2ccccc2)=C1O	167 to 170 °C
O=Cc1ccc(N2CCC(O)CC2)cc1	115 to 118 °C

Prompt: Requested read-out: melting point. Entry: `NS(=O)(=O)c1ccc(-c2noc(-c3cnn4ccc(-c5ccc(C(F)(F)F)cc5)nc34)n2)s1`
Completion: 251 °C

Prompt: Report melting point for `Cc1cnc2[nH]c3ccccc3c2c1` please.
Completion: 270 °C

Prompt: Bench note: what melting point did O=C(COc1ccccc1)NC1CNC1=O (stereo not drawn) show?
Completion: 153 to 155 °C

----------
The reader will find reported melting point values listed item by item below.

Field: example entries. Status: answers known.
CCOCc1nc2c(N)nc3ccccc3c2n1CC(C)(C)CS(N)(=O)=O	229 to 231 °C
O=C(O)c1cc(-c2ccccc2C(F)(F)F)nc(C(F)(F)F)c1	155 to 157 °C
CCOc1c2c(c([N+](=O)[O-])c(OCC)c1OCC)C(=O)OC2	82.5 to 84.5 °C

Prompt: Returns the measured melting point for the input compound. Input: `COc1ccc2oc(=O)c(S(=O)(=O)Nc3ccc(F)c(N)c3)cc2c1`
Completion: 255 to 260 °C

Prompt: Field request: melting point | item: `O=C1c2ccccc2C(=O)N1Cc1noc(-c2ncn3c2[C@@H]2CCN2C(=O)c2cc(F)ccc2-3)n1`
Completion: 287 to 288 °C

Prompt: Which melting point is listed for `O=C(O)CN1C(=O)C(=Cc2ccc(Cc3cccnc3)s2)SC1=S` ?
Completion: 254 to 256 °C

Prompt: Quick check: melting point of `COc1ccc2c(c1)c(-c1ccccc1)nc1nnc(C)n12` ?
Completion: 251 to 252 °C

Prompt: So what does the record say about melting point for `CCOc1nc2cccc(C(=O)O)c2n1Cc1ccc(-c2ccccc2-c2nnn[nH]2)cc1` ?
Completion: 183 to 185 °C

Prompt: Would you mind telling me what melting point value was observed for `Fc1ccc(Cn2c(NC3CCN(CCOc4ccc5ccccc5n4)CC3)nc3ccccc32)cc1` ?
Completion: 150 °C

Prompt: State the recorded melting point for this entry: `CC(C)(Cc1ccc(Br)cc1)C(C(=O)O)C(=O)O`
Completion: 169 to 173 °C

Prompt: I have this compound here, `O=C1CCNc2c([N+](=O)[O-])cc(Cl)c(Cl)c21` , and I need its recorded melting point.
Completion: 175 to 176 °C

Prompt: Query (compound): O=C(NC1CCc2c[nH]cc2C1)[C@@H]1CCCN1C(=O)[C@@H](CC1CCCCC1)NS(=O)(=O)Cc1ccccc1 (stereo partly specified) ; field requested: melting point
Completion: 106 to 109 °C

Prompt: For the compound shown here, `CC(C)(C#N)c1cc(C(C)(C)C#N)cc(C(C)(C)n2cncn2)c1` , give the reported melting point.
Completion: 185 to 188 °C

Prompt: I'd like to know its melting point. The compound in question is Cc1ccc2c(c1)SC(C(F)(F)F)C(C(=O)O)=C2 (stereo unspecified)
Completion: 187 to 192 °C

Prompt: Using the record for `CC(=O)OCc1ccc(-c2[nH]c(-c3cccc4ccccc34)nc2C(=O)OC(C)(C)C)cc1` , report its melting point.
Completion: 162 to 164 °C

Prompt: Need melting point of CC(C)(Cn1cncn1)C(O)(CCc1ccc2ccccc2c1)Cn1cncn1 (stereo unspecified) , thanks.
Completion: 77 to 80 °C

Prompt: What value of melting point has been reported for the following compound? `CCCc1nc2c(C(F)(F)F)cccc2c(O)c1C(=O)OCC`
Completion: 98 °C

Prompt: I would be grateful if you could share the reported melting point for `O=C(O)Cc1ccc2c(c1)Cc1ccccc1C(=O)C2` .
Completion: 186 to 188 °C

Prompt: Tell me the measured melting point of `Cn1cc(-c2cccc(S(=O)(=O)n3ccc(/C=C/C(=O)NO)c3)c2)cn1` , please.
Completion: 155 to 160 °C

Prompt: Using the record for COC(=O)c1sccc1OCC(O)CN1CCC(O)(c2ccccc2)CC1 (stereo unspecified) , report its melting point.
Completion: 150 to 152 °C

Prompt: Suppose we examine the compound `O=C(Oc1ccc(O)cc1)c1ccc(O)cc1` ; what melting point value has been reported?
Completion: 242 to 245 °C

Prompt: Which melting point reading was recorded for the compound `COc1cccc(C(Cn2ccnc2)=[N+](C)[O-])c1` ?
Completion: 87 to 90 °C

Prompt: Looking for the measured melting point of `O=C(CCCCN1CCCCC1)c1ccc2c(c1)Cc1cc(C(=O)CCCCN3CCCCC3)ccc1S2` , can you help?
Completion: 98.5 to 99.5 °C

Prompt: # lookup: melting point of `CP(C)(=O)COC(=O)c1cncn1C(c1ccccc1)c1ccccc1`
Completion: 174 °C

Prompt: GET /values?readout=melting point&item= `Cc1c2c(nn1-c1ccc(Cl)cc1F)CCCC2`
Completion: 84.5 to 87.5 °C

Prompt: Item under review: `CC(C)(C)OC(=O)N1CCN(Cc2ccccc2)C(=S)C1` . Reported melting point?
Completion: 126 to 129 °C

----------
Reported melting point values for the following molecules.
Provide only the numeric value, understood in °C.

Here's what some known entries look like.
CC(C)N(CCC(c1ccccc1)c1cc(CO)ccc1OCc1ccccc1)C(C)C (stereo not given)	86.4
COn1c(Br)c(Br)c(C#N)c1-c1ccc(Cl)cc1	190

Then there is this molecule:
Prompt: What value of measured melting point is listed for CNC(=O)N1CCc2[nH]cnc2C1c1ccccc1 (stereo not given) ?
Completion: 180

----------
reported_metric: melting point

Check out these entries, answers already filled in.
Cn1cc(C(N)=O)c(-c2ccc([N+](=O)[O-])o2)n1	251 to 252 °C
COc1ccc(-n2nc(C(=O)c3ccccc3)cc2-c2ccc(C)cc2)cc1	138 to 139 °C
CCCCCCCCCCCCCCCCCC(=S)SCC(C)C(=O)N1CCCC1C(=O)O (stereo unspecified)	50 to 51 °C
Cc1cccc(C)c1Oc1ccc2ccc(N)nc2n1	218 °C
CCc1nn(CCO)c(CC)c1Oc1cc(-n2cccn2)cc(-n2cccn2)c1	108 to 110 °C

Prompt: Param item = `NS(=O)(=O)c1c(CF)nsc1OCC(F)(F)F` ; retrieve measured melting point.
Completion: 70 to 73 °C

Prompt: Look up melting point for this compound: `O=C1c2ccccc2C(=O)N1CC(=C(F)F)c1ccccc1`
Completion: 102 to 103 °C

Prompt: Give its melting point value. Item: `OC(c1ccc(Br)cc1)c1ccc(Br)cc1`
Completion: 112 to 113 °C

Prompt: Any idea what its melting point is? The compound is `Cc1cc(-c2ccc(C#N)cc2)c(C)n1Cc1cnc(Cl)c(CO)c1`
Completion: 128 to 129 °C

Prompt: Requested read-out: melting point. Entry: `COC(=O)c1cc(C)nc(OC)n1`
Completion: 101 to 103 °C

Prompt: Consider the compound `FC(F)(F)c1ccc(-c2ncc(CCl)s2)cc1` and give its measured melting point.
Completion: 55 to 57 °C

Prompt: Entry CC#CCOc1ccc(SC(C(=O)NO)c2ccc(-c3cccs3)cc2)cc1 (stereo unspecified) has what melting point?
Completion: 182 °C

Prompt: What value of melting point has been reported for the following compound? `[N-]=[N+]=NC(=O)c1ccc2c(c1)C(=O)OC2=O`
Completion: 100 to 103 °C

Prompt: // melting point lookup, key: `CC(C)S(=O)(=O)c1cc(C#N)c(N)c(OCCc2ccccn2)c1`
Completion: 122 to 123 °C

Prompt: Reported melting point for `COc1cc(C2CCN(CC(N)=O)CC2)ccc1Nc1ncc2ccc(-c3cccc(S(=O)(=O)NC(C)(C)C)c3)n2n1` : what is it?
Completion: 250 to 252 °C

Prompt: Which value of melting point has been reported for `COc1ccc2[nH]c(C)c(CCNC(=O)C3CC3)c2c1` in the records?
Completion: 102 to 103 °C

Prompt: Name the recorded melting point for `O=C(Nc1nc(-c2ccco2)c(C(=O)C2CCSCC2)s1)c1ccncc1` .
Completion: 203 to 210 °C

Prompt: Which value of melting point has been reported for `Cc1ccc2c(c1)N(C1CC1)CNS2(=O)=O` in the records?
Completion: 157 to 158 °C

Prompt: Quick one: melting point of `CCc1cc(C(O)(CC)CC)ccc1-c1cc(OCc2ccc(CO)c(CO)c2)ccc1CC` ?
Completion: 93 °C

Prompt: Look up melting point for this compound: `O=c1c(Cl)c(OCc2ccc(Cl)cc2)cnn1-c1ccc(F)cc1F`
Completion: 167 °C

Prompt: Query (compound): CC(C)(S)[C@@H]1C[C@H](CS)C(=O)N1 (relative stereo) ; field requested: melting point
Completion: 159 to 161 °C

Just for reference, a melting point compilation (Tetko et al.; mined from patent text by program, amines drawn as free bases though some values may be those of a salt) is where these values come from.
